This collection of values is drawn from ChEMBL document CHEMBL4513216.

# Tested on: Plasmodium berghei
# ASSAY: Screen against P. berghei liver stage (PbLuc), transformed with Luciferase, at 2uM
# Format: functional, HepG2
# STUDY_CONDITIONS: tested at 2 uM
Out of some 68,000 compounds screened, about 2,700 (4%) showed an effect of 50% or more. The full list was thinned out, with strong results kept by preference.
PROPERTY_NAME: INHIBITION (%)

CCOCCC(=O)N1CCCCC1CCn1cccn1 (configuration not stated); 30.25
CC(=O)N1CC2(CCCCN2Cc2ccc(Cl)cc2)Cc2ccccc21 (configuration not stated); -31.86
C=C(C)COc1cccc(C(=O)N(C)C(C)c2ccncn2)c1 (configuration not stated); 18.88
O=C(c1nc2sccn2c1-c1ncc[nH]1)N1CCCCC1; -1.65
COc1ccc(CC(=O)NCCCc2nnc3nc(C)cc(C)n23)cc1; 0.54
CC(NC(N)=O)C(=O)N1CCCN(Cc2nccn2C(C)C)CC1 (configuration not stated); -7.5
CCCc1cc(CNC2CCN(c3nc(C)cc(C)n3)CC2)on1; 58.59
COCCNc1nc(C)nc2c1CCN(CC1CCC(N)CC1)CC2 (configuration not stated); 57.67
COc1c[nH]c(C(=O)Nc2nc(C)cs2)cc1=O; 79.68
NC1CC(C(F)(F)F)=NC=C1c1ccccc1 (configuration not stated); 25.93
CCCc1cc(CNC2CCN(c3cc(C)nc(N)n3)CC2)on1; -13.81
COCCNc1nc(C2CCCC2)nc2c1CCNCC2; 34.98
